Target: T1, orthogonal hCD122 receptor (hoRb), hCD122 with H133D and Y134F (human, UniProt P14784 27-550); also: reference of the scale not given here
T1 sequence: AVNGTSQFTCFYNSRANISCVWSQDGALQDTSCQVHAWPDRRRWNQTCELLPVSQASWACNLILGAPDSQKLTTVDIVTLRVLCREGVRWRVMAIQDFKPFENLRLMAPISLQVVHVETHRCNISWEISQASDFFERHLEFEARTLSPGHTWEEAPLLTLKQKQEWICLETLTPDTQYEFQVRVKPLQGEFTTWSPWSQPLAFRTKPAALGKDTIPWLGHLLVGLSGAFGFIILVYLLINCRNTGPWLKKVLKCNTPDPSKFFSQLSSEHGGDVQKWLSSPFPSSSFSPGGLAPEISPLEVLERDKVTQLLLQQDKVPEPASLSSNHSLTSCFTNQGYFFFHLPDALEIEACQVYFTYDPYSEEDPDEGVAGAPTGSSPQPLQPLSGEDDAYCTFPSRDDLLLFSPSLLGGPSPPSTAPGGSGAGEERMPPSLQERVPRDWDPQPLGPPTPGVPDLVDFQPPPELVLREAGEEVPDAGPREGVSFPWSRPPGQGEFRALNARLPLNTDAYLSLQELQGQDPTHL
Test: cell-based or functional assay
reportedEndpoint: Relative Proliferation Fold Change 3F8 1:2 (fold)

binder	measuredValue
SQVLKL (ligand) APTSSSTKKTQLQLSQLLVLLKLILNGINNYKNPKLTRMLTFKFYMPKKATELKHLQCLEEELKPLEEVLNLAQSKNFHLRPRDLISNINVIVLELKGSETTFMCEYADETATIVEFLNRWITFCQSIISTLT	43
L18F, SQVLKA (ligand) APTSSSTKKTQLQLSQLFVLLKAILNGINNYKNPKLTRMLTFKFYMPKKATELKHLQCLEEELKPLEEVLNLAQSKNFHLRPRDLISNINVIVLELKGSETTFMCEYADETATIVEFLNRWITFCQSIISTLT	54.8
